Format: in vivo, CD-1 mice
Settings: CD-1, mouse, plasma, ip, 40 mg/kg
property name: concentration at 24 h

Task: Request the reported concentration at 24 h associated with COc1ccc2[nH]c3c(-c4cccc5ccccc45)nccc3c2c1 [SP-141]
Output: < 150 ng/mL

---

Format: in vivo, CD-1 mice
Details: CD-1, mouse, plasma, ip, 40 mg/kg
property name: half-life (h)
Supply the numeric figure in h, leaving out any unit text.

Task: Request the reported half-life associated with COc1ccc2[nH]c3c(-c4cccc5ccccc45)nccc3c2c1
Output: 1.78

---

Type: in vivo, CD-1 mice
Settings: CD-1, mouse, plasma, ip, 40 mg/kg
property name: Tmax (min)
Supply the numeric figure in min, leaving out any unit text.

Task: Request the reported Tmax associated with COc1ccc2[nH]c3c(-c4cccc5ccccc45)nccc3c2c1
Output: 10
